Hello, the source for this data is PubChem BioAssay (EPA / NIEHS), in case you need it.

Read-out: Interleukin-8 (IL8), CXCL8 (gene 3576)
experiment: BSK_hDFCGF_IL8: BioMAP Diversity Plus: hDFCGF Assay for Interleukin-8 (IL8) Biomarker Activity (AID 2283058)
test context: primary human foreskin fibroblasts; actives raise or lower the signal
The source made the active and inactive calls. How the source made its calls: active means hit-call score of the fitted dose curve at least 0.9, where 1 is the maximum; inactive means score below 0.9.
Outcome codes: active, inactive

compound=CC(=O)Oc1ccccc1C(=O)O label_value=inactive
compound="CCCCC(CC)COC(=O)CC(C(=O)OCC(CC)CCCC)S(=O)(=O)O (configuration not stated)" label_value=active
compound=CN1CCN(Cc2cc(-c3ccc4[nH]c(=O)oc4c3)co2)[C@@H](c2ccc(F)cc2)C1 label_value=inactive
compound=COc1cc(S(=O)(=O)O)c(C)cc1N=Nc1c(O)ccc2cc(S(=O)(=O)O)ccc12 label_value=inactive
compound=COc1ccc(C)cc1N label_value=inactive
compound=C[Si]1(C)O[Si](C)(C)O[Si](C)(C)O[Si](C)(C)O1 label_value=inactive
compound=CCCCCCOCCO label_value=inactive
compound=Nc1nc(N)c2nc(CNc3ccc(C(=O)N[C@@H](CCC(=O)O)C(=O)O)cc3)cnc2n1 label_value=inactive
compound=FC(F)(F)C(F)(F)C(F)(F)C(F)(F)C(F)(F)C(F)(F)CCI label_value=inactive
compound=C1CCC(SSC2CCCCC2)CC1 label_value=inactive
compound=Cc1cccc(C)c1O label_value=inactive
compound=Nc1ccccc1N label_value=inactive
compound=CCCCCCCC=O label_value=inactive
compound="COCCOC[C@H](CC1(C(=O)NC2CCC(C(=O)O)CC2)CCCC1)C(=O)Oc1ccc2c(c1)CCC2 (some centres not stated)" label_value=inactive
compound=CCCCCCCCCCCC(=O)OC label_value=inactive
compound=CC1=C(/C=C/C(C)=C/C=C/C(C)=C/CO)C(C)(C)CCC1 label_value=inactive
compound=Oc1ccc2ccccc2c1N=Nc1ccccc1 label_value=inactive
compound=CNC(=O)[C@H]1O[C@@H](n2cnc3c(NCc4cc(Cl)ccc4OCc4cc(C)no4)ncnc32)[C@H](O)[C@@H]1N label_value=inactive
compound=O=c1[nH]cc(F)c(=O)[nH]1 label_value=inactive
compound=COc1cc(C=O)ccc1O label_value=inactive
compound=c1cc(-c2ccncc2)ccn1 label_value=inactive
compound=CC(=O)OCCOCCOCCOC(C)=O label_value=inactive
